tgt: PDE4D (Homo sapiens)
Construct: PDE4D: The catalytic domain of human PDE4B from S3 16-V692; His6 (N); thrombin cleavage site (N); made in house; host or cells: E. coli
protocolText: PDE4 IC50 determination by Scintillation Proximity Assay, PDE4D
Assay type: biochemical
conditionInfo: Table 1B, Formula I compounds; read-out: IC50 PDE4D
pIC50: −log10 of the molar value.
Reported pIC50 is given for each of the following molecules.

Check out these entries, answers already filled in.
{"columns": ["molecule", "pIC50"],
 "data": [
  ["COC(=O)C(CCSC)Nc1sc(C(=O)c2coc3ccccc23)c(N)c1C#N (stereo not shown)", "> 5.00"],
  ["Cc1nc(-c2cnccn2)sc1C(=O)c1sc(NC2CCCC2)c(C(N)=O)c1N", "> 5.00"],
  ["N#Cc1c(NC2CCCC2)sc(C(=O)C2CC2)c1N", "> 5.00"]
]}

Which pIC50 reading was recorded for the molecule COC(=O)C(CC(C)C)Nc1sc(C(=O)c2ccc(OC)cc2OC)c(N)c1C#N (stereo not shown) ? < 5.00

Repeat for the following molecule: COC(=O)C(CCSC)Nc1sc(C(=O)c2ccccc2Cl)c(N)c1C#N (stereo not shown) > 5.00

Then what about the molecule "N#Cc1c(NC2CCCC2)sc(C(=O)c2nc3ccccc3s2)c1N" ? > 5.00

Lookup "N#Cc1c(NCCN2CCCCC2)sc(C(=O)c2cc(-c3ccc(Cl)cc3Cl)no2)c1N" < 5.00

Likewise for "COc1ccc(Nc2sc(C(=O)c3ccc(-c4ccccn4)s3)c(N)c2C#N)cc1" ? > 5.00

And the next one, "Cc1cc(Cl)ccc1Nc1sc(C(=O)c2cc3cc(Cl)ccc3o2)c(N)c1C#N" ? < 5.00

Let us now turn to "CSc1cccc(Nc2sc(C(=O)c3ccccc3Cl)c(N)c2C#N)c1" > 5.00

Another: "COc1ccc(OC)c(C(=O)c2sc(NCCN3CCCCC3)c(C#N)c2N)c1" < 5.00

----------
tgt: PDE4B: The catalytic domain of human PDE4B from S152-S528 (Homo sapiens)
Construct: His6 (N); thrombin cleavage site (N); made in house; host or cells: E. coli
Sequence (Q07343 with tags, fused parts or gaps): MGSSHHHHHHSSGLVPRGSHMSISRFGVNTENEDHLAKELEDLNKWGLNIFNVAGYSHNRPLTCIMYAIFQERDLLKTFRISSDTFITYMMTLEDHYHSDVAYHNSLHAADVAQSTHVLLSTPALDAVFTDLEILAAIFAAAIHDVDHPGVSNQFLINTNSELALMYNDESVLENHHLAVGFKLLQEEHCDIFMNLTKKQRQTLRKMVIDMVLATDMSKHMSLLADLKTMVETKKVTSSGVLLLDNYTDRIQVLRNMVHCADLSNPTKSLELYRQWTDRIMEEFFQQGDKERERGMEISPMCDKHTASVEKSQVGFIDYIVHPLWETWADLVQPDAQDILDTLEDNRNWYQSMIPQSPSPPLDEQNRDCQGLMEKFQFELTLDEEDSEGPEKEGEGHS
protocolText: PDE4 IC50 determination by Scintillation Proximity Assay, PDE4B
Assay type: biochemical
conditionInfo: Table 3A, Formula III compounds; read-out: IC50 PDE4B
Method: IC50s were determined by Scintillation Proximity Assay (SPA). The principle of the assay is based on the fact that cAMP, the PDE4 substrate, binds weakly to Yittrium Silicate SPA beads, whereas AMP, the product of PDE4 hydrolysis binds strongly. Thus, the extent of PDE4 hydrolysis of a sample of [^3H]cAMP can be measured because only the [^3H]AMP produced by PDE4 hydrolysis will bind to the SPA beads and produce a scintillation signal. PDE4 enzymes used for IC50 assays were: […]
pIC50: −log10 of the molar value.
assayReadout: pIC50

{"columns": ["givenSmiles", "pIC50"],
 "data": [
  ["CSc1nccc(-c2ccc(S(=O)(=O)Nc3c(C)ccc4cccnc34)s2)n1", "< 5.00"],
  ["COc1cc(NS(=O)(=O)c2ccc(C#N)cc2)c2ncccc2c1", "< 5.00"],
  ["Cc1nc(-c2ccc(S(=O)(=O)Nc3cccc4cccnc34)s2)cs1", "> 5.00"],
  ["COC(=O)c1ccc(S(=O)(=O)Nc2cccc3cccnc23)o1", "< 5.00"],
  ["O=C(c1ccncc1)c1ccc(S(=O)(=O)Nc2cccc3cccnc23)cc1", "> 5.00"]
]}

Please look up its pIC50: "O=C(NCc1ccc(S(=O)(=O)Nc2cccc3cccnc23)s1)c1ccccc1" < 5.00

----------
Recorded measurements of IC50, one per entry
tgt: full-length human PDE4B2 isozyme (Homo sapiens)
Construct: The full-length human PDE4B2 isozyme; His6 (N); TEV cleavage site (N); made in house; host or cells: baculovirus infected insect cells (unpurified lysate)
Sequence (Q07343 1-564 isoform Q07343-2): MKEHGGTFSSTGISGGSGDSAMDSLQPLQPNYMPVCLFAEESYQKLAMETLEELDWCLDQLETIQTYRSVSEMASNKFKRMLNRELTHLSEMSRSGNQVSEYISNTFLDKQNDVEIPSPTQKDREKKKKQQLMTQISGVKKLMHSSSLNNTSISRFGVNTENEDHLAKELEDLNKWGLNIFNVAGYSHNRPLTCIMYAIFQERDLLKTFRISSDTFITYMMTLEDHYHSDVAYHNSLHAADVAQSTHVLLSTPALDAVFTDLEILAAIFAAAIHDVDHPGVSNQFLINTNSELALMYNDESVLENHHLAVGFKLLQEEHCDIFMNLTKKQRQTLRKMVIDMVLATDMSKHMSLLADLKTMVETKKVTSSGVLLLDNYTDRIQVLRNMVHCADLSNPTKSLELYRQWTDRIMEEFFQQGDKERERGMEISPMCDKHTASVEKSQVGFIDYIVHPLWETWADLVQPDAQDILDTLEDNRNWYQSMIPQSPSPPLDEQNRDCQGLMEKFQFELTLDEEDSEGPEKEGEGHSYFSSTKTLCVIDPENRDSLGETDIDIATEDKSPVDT
protocolText: PDE4 IC50 determination by Scintillation Proximity Assay, PDE4B2
Assay type: biochemical
conditionInfo: Table 1B, Formula I compounds; read-out: IC50 PDE4B2

{"columns": ["compound", "tgt", "IC50"],
 "data": [
  ["N#Cc1c(NC2CCCC2)sc(C(=O)c2cc(-c3ccc(F)cc3)no2)c1N", "full-length human PDE4B2 isozyme (Homo sapiens)", "< 10 µM"],
  ["N#Cc1c(Nc2ccccc2)sc(C(=O)c2ccc(Cl)cc2)c1N", "full-length human PDE4B2 isozyme (Homo sapiens)", "< 10 µM"],
  ["N#Cc1c(Nc2ccccc2)sc(C(=O)c2cc(-c3ccccc3)no2)c1N", "full-length human PDE4B2 isozyme (Homo sapiens)", "< 10 µM"]
]}

IC50 for N#Cc1c(NC2CCCO2)sc(C(=O)c2cc(-c3ccccc3)no2)c1N (stereo not shown) ? < 10 µM

----------
Consider the following molecules and their measured IC50 readings.
tgt: PDE4D (Homo sapiens, UniProt Q08499)
Construct: PDE4D: The catalytic domain of human PDE4B from S3 16-V692; His6 (N); thrombin cleavage site (N); made in house; host or cells: E. coli
Sequence (Q08499 380-756): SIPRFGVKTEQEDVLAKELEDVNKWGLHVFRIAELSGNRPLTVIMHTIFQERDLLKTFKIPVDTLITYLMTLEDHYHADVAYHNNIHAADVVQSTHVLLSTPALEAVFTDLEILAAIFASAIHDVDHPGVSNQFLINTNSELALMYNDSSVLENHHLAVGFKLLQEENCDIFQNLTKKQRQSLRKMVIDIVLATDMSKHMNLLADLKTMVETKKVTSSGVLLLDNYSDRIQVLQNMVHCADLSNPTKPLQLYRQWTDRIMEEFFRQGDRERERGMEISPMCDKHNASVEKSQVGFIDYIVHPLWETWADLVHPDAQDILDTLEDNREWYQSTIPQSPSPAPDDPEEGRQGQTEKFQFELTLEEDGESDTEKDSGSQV
protocolText: PDE4 IC50 determination by Scintillation Proximity Assay, PDE4D
Type: biochemical
conditionInfo: Table 1B, Formula I compounds; read-out: IC50 PDE4D

Look over these answered cases.
{"columns": ["molecule", "assayReadout", "endpointValue"],
 "data": [
  ["N#Cc1c(NC2CCCCC2)sc(C(=O)c2cc(-c3ccccc3)no2)c1N [Compound 1-204]", "IC50", "> 10 µM"],
  ["CCC(C)Nc1sc(C(=O)c2cc(-c3ccccc3)no2)c(N)c1C(N)=O (stereo not shown) [Compound 1-244]", "IC50", "< 10 µM"]
]}

Query for PDE4D (Homo sapiens, UniProt Q08499): what IC50 does the record show for Cc1c(C(=O)c2sc(Nc3cccc(C#N)c3)c(C#N)c2N)cnn1-c1ccccc1 [Compound 1-125] ? < 10 µM

Same again, this time with N#Cc1c(Nc2ccc3c(c2)CCC3)sc(C(=O)c2ccc(-c3ccccn3)s2)c1N [Compound 1-71] < 10 µM

Same again, this time with COC(=O)C(CC(C)C)Nc1sc(C(=O)c2coc3ccccc23)c(N)c1C#N (stereo not shown) [Compound 1-106] > 10 µM

----------
tgt: PDE4D (Homo sapiens)
Construct: PDE4D: The catalytic domain of human PDE4B from S3 16-V692; His6 (N); thrombin cleavage site (N); made in house; host or cells: E. coli
protocolText: PDE4 IC50 determination by Scintillation Proximity Assay, PDE4D
Type: biochemical
conditionInfo: Table 1B, Formula I compounds; read-out: IC50 PDE4D
Description: IC50s were determined by Scintillation Proximity Assay (SPA). The principle of the assay is based on the fact that cAMP, the PDE4 substrate, binds weakly to Yittrium Silicate SPA beads, whereas AMP, the product of PDE4 hydrolysis binds strongly. Thus, the extent of PDE4 hydrolysis of a sample of [^3H]cAMP can be measured because only the [^3H]AMP produced by PDE4 hydrolysis will bind to the SPA beads and produce a scintillation signal. PDE4 enzymes used for IC50 assays were: […]
A collection of compounds and their measured IC50

Record excerpt, results attached:
{"columns": ["compound", "endpointValue"],
 "data": [
  ["N#Cc1c(NC2CCCO2)sc(C(=O)c2cc(-c3ccccc3)no2)c1N (stereo not drawn) [Compound 1-210]", "< 10 µM"],
  ["N#Cc1c(Nc2ccc(Cl)cc2)sc(C(=O)c2ccc(Cl)cc2Cl)c1N [Compound 1-18]", "< 10 µM"],
  ["CC(C)C(C)Nc1sc(C(=O)c2cc(-c3ccccc3)no2)c(N)c1C#N (stereo not drawn) [Compound 1-223]", "> 10 µM"],
  ["Cc1sc(-c2ccccc2)cc1C(=O)c1sc(NC2CCCC2)c(C#N)c1N [Compound 1-234]", "< 10 µM"],
  ["CCOC(=O)c1c(Nc2ccccc2F)sc(C(=O)c2ccc(Cl)cc2)c1N [Compound 1-22]", "< 10 µM"]
]}

Field request: IC50 | item: N#Cc1c(Nc2ccc(Oc3ccccc3)cc2)sc(C(=O)c2ccc(-c3ccccn3)s2)c1N [Compound 1-76] > 10 µM

And Cc1cc(NC(=O)c2sc(Nc3ccccc3)c(C#N)c2N)no1 [Compound 1-26] ? < 10 µM

Next record, please: COc1ccc(OC)c(C(=O)c2sc(Nc3ccc(C(=O)NC4CCOC4=O)cc3)c(C#N)c2N)c1 (stereo not drawn) [Compound 1-97] < 10 µM

Now consider N#Cc1c(NC2CCCC2)sc(C(=O)c2ccc(Oc3ccccc3)cc2)c1N [Compound 1-231] and answer again. < 10 µM

----------
tgt: PDE4D (Homo sapiens)
Construct: PDE4D: The catalytic domain of human PDE4B from S3 16-V692; His6 (N); thrombin cleavage site (N); made in house; host or cells: E. coli
protocolText: PDE4 IC50 determination by Scintillation Proximity Assay, PDE4D
Type: biochemical
conditionInfo: second part of Table 2B (2-23 to 2-103), column 5; column is PDE4D in first part; read-out: IC 50 vs. indicated assay h TNFα
Experimental: IC50s were determined by Scintillation Proximity Assay (SPA). The principle of the assay is based on the fact that cAMP, the PDE4 substrate, binds weakly to Yittrium Silicate SPA beads, whereas AMP, the product of PDE4 hydrolysis binds strongly. Thus, the extent of PDE4 hydrolysis of a sample of [^3H]cAMP can be measured because only the [^3H]AMP produced by PDE4 hydrolysis will bind to the SPA beads and produce a scintillation signal. PDE4 enzymes used for IC50 assays were: […]
pIC50: −log10 of the molar value.
assayReadout: pIC50

Illustrative cases are given below, each with its answer.
{"columns": ["givenSmiles", "assayReadout", "endpointValue"],
 "data": [
  ["N#Cc1cccc(Nc2nc(N)c(C(=O)c3ccc(OC(F)F)cc3)s2)c1", "pIC50", "< 5.00"],
  ["COc1ccc(Nc2nc(N)c(C(=O)c3cccc(C(F)(F)F)c3)s2)cc1", "pIC50", "> 5.00"],
  ["Nc1nc(NC2CCCC2)sc1C(=O)c1ccsc1", "pIC50", "> 5.00"],
  ["Nc1nc(NC2CCCC2)sc1C(=O)c1ccc(Oc2ccccc2)cc1", "pIC50", "> 5.00"],
  ["COc1ccc(C(=O)c2sc(NC3CC3)nc2N)cc1", "pIC50", "> 5.00"]
]}

Could you share which pIC50 value was measured for "COC(=O)c1cccc(Nc2nc(N)c(C(=O)c3ccccc3)s2)c1" ? > 5.00

Now this one: "Nc1nc(Nc2c(Cl)cccc2Cl)sc1C(=O)C1CCCC1" > 5.00

Similarly, "Nc1nc(Nc2ccc(Oc3ccccc3)cc2)sc1C(=O)C1CCCC1" ? < 5.00

What do we get for "CCOC(=O)c1ccc(Nc2nc(N)c(C(=O)c3ccccc3)s2)cc1" ? < 5.00

Param item: "Nc1nc(Nc2ccc(F)cc2)sc1C(=O)c1ccc(F)cc1" > 5.00

Next compound up: "Nc1nc(Nc2ccc(Oc3ccccc3)cc2)sc1C(=O)c1ccccc1Cl" < 5.00

Now give it for "COc1ccc(Nc2nc(N)c(C(=O)c3ccc(OC(F)F)cc3)s2)cc1" too. > 5.00

"COc1cccc(C(=O)c2sc(NC3CC3)nc2N)c1" , same question. > 5.00

Moving on to "Nc1nc(Nc2cc(Cl)ccc2Cl)sc1C(=O)c1ccccc1" > 5.00

Field entry: "Nc1nc(NC2CC2)sc1C(=O)c1cccc(Cl)c1" > 5.00
